Provenance of the data: a melting point compilation (Tetko et al.)

For each of the molecules below, state its melting point.

COC(=O)c1cc(-c2cccs2)ccc1N
89 to 91 °C
O=C(O)c1cc(OCc2ccccc2)ccc1O
165 to 167 °C
O=C1CC(N2CCCC2)C(=O)N1 (centres undefined)
123 to 125 °C

Give melting point for each of the items listed below.
1. Nc1cc(Br)c(S(N)(=O)=O)cc1[N+](=O)[O-]
2. O=Cc1csc(-c2cccs2)n1
3. NC(=O)c1cc(-c2ccccc2)sc1N
4. Nc1cccnc1N1CCCC1
5. O=Cc1cccc(Br)c1OC(F)F
6. CN(CCO)c1ccc(N)nc1

Result:
268 to 270 °C
80 to 82 °C
200 to 210 °C
78 to 80 °C
49 to 51 °C
82 to 84 °C
